Ref: PubChem BioAssay (NCI)

- Test system: HCT-15 colon
- method summary: NCI-60 one-dose screen, 48 h
- test settings: 10 µM unless noted
About 83,000 compounds went through this panel and 20% of them were active in at least one assay; those are over-represented in the sample as a whole. Calls of active or inactive are those of the source. How the source made its calls: active means growth percent below 10; inactive means the rest.
Output constraint: value belongs to active, inactive

The following compounds have reported results that may help.
Task: Outcome logged for "c1cc(NCCCCN2CCOCC2)c2ccc3c(ccc4c(NCCN5CCOCC5)ccnc43)c2n1" in this assay:
Output: inactive

Task: Outcome logged for "O=C1C(=C(O)c2ccccc2)C(=O)c2ccccc21" in this assay:
Output: inactive

Task: Outcome logged for "CCC(=O)Oc1cc(Cl)c(Cl)cc1Cl" in this assay:
Output: inactive

More entries:
Task: Outcome logged for "COc1ccc(Cn2cc(C(=O)Nc3cccnc3Nc3ccccc3)nn2)cc1" in this assay:
Output: inactive

Task: Outcome logged for "Cc1ccc(-c2nc3nc(-c4ccccc4)nc(N4CCN(S(=O)(=O)c5ccccc5)CC4)c3o2)cc1" in this assay:
Output: inactive

Task: Outcome logged for "CN1CCN(C(=O)OCc2nc3c(N4CCOCC4)nc(Cl)nc3n2C)CC1" in this assay:
Output: active

Task: Outcome logged for "N#Cc1ccccc1-c1ccc(Cn2c(-c3cscn3)nc3c(Cl)cccc32)cc1" in this assay:
Output: inactive

Task: Outcome logged for "C=CCN1C=CC(=O)[C@H](O[Si](C)(C)C(C)(C)C)[C@@H]1/C=C/c1ccccc1" in this assay:
Output: active

Task: Outcome logged for COc1ccc(C(c2cc(OC)c(OC)c(OC)c2)n2ccnc2)cc1O (stereo not given) in this assay:
Output: active

Task: Outcome logged for O=C(/C=C/C12c3ccccc3C(c3ccccc31)C1C(=O)NC(=O)C12)c1ccncc1 (stereo not given) in this assay:
Output: active

====

- System: OVCAR-5 ovarian
- method summary: NCI-60 one-dose screen, 48 h (100 = growth as untreated, 0 = no growth, -100 = all killed)
- test settings: 10 µM unless noted
Compounds without any hit were thinned out: in the full panel of roughly 83,000, 20% have a hit.
endpoint name: growth (%)
Lab book: enter the figure in %, no units written.

Task: Given the compound "COc1ccc(/C=N/NC(=O)CN2CCN(c3cc4c(cc3F)c(=O)c(C(=O)O)cn4C3CC3)CC2)cc1O" , what is its reported growth?
Output: 108

Task: Given the compound "COc1cc(-c2nc(SCCC(C)C)nc(Nc3ccc(F)cc3)c2C#N)cc(OC)c1OC" , what is its reported growth?
Output: 95

Task: Given the compound "Oc1ccccc1C=Nc1ccc(N2CCN(c3ccccc3)CC2)cc1" , what is its reported growth?
Output: 109

More entries:
Task: Given the compound "COc1cc(/C=C2\CCC/C(=C\c3cc(CN4CCCC4)c(O)c(OC)c3)C2=O)cc(CN2CCCC2)c1O" , what is its reported growth?
Output: 39.9

Task: Given the compound "O=C(Nc1ncc(Cc2cccc(C(F)(F)F)c2)s1)c1ccc2c(c1)OCCO2" , what is its reported growth?
Output: 37.1

====

Reported growth is given for each of the following compounds.
- System: NCI-H460 lung
- method summary: NCI-60 one-dose screen, 48 h (100 = growth as untreated, 0 = no growth, -100 = all killed)
- test settings: 10 µM unless noted
This is part of a sample that, as a whole, favours compounds with a hit. Of some 83,000 tested, about 20% had one in any assay. The source made the active and inactive calls. How the source made its calls: active means growth percent below 10; inactive means the rest.

As a guide, the following entries are already answered.
Task: Given the compound CCCCC1COc2cccc3c2N1C=C/C3=C\C(=O)N(C)c1cccc(Cl)c1 (centres undefined) , what is its reported growth?
Output: 105% (inactive)

Task: Given the compound "COc1ccc(NC(=O)Nc2ccccc2CNc2nc(Nc3ccc(OCCN4CCCC4)cc3)ncc2Cl)cc1" , what is its reported growth?
Output: -70.9% (active)

Task: Given the compound "Clc1nccc2c(-c3csc(-c4c[nH]c5ccc(Br)cc45)n3)c[nH]c12" , what is its reported growth?
Output: -5.23% (active)

Task: Given the compound "O=C(Cc1ccc(F)cc1)c1ccccc1" , what is its reported growth?
Output: 108% (inactive)

Task: Given the compound "CCCCC1=C(Br)C(=O)c2nc(C)ccc2C1=O" , what is its reported growth?
Output: 98.8% (inactive)

More entries:
Task: Given the compound "O=C1c2cccc3cccc(c23)C(=O)N1N1C(=O)c2cccc3c(N4CCNCC4)ccc(c23)C1=O" , what is its reported growth?
Output: 72.4% (inactive)

Task: Given the compound "O=C1C(N2CCOCC2)=C(I)C(=O)c2ncccc21" , what is its reported growth?
Output: 58.8% (inactive)

Task: Given the compound "COc1cc(Cl)cc(-c2nn(C(=O)NS(=O)(=O)c3ccc(Cl)cc3)cc2-c2ccncc2)c1" , what is its reported growth?
Output: 111% (inactive)

Task: Given the compound C=C(CNCCO)[C@@H]1CC[C@]2(CO)CC[C@]3(C)[C@H](CC[C@@H]4[C@@]5(C)CCC(NCCc6ccc(O)cc6)C(C)(C)[C@@H]5CC[C@]43C)[C@@H]12 (some centres undefined) , what is its reported growth?
Output: -80.4% (active)

Task: Given the compound "Cc1ccc(Nc2nc(-c3cc(O)c(C)c(C)c3O)cs2)cc1" , what is its reported growth?
Output: 104% (inactive)

Task: Given the compound "N#CSc1c[nH]c2ccc(/C=C/C(=O)/C=C(/C=C/c3ccc4[nH]cc(SC#N)c4c3)OB(F)F)cc12" , what is its reported growth?
Output: 3.07% (active)

Task: Given the compound "COc1ccc(-c2cc3cnc4ccccc4c3oc2=O)cc1" , what is its reported growth?
Output: 104% (inactive)

Task: Given the compound "O=C1C(=C(O)c2ccccc2)C(=O)c2ccccc21" , what is its reported growth?
Output: 116% (inactive)

Task: Given the compound "O=C(Oc1ccc(CO[N+](=O)[O-])cc1)c1ccccc1" , what is its reported growth?
Output: -65.3% (active)

Task: Given the compound "CC(=O)c1c(C)nc2ccccc2c1/C=C/c1cccc(C)c1" , what is its reported growth?
Output: 33.8% (inactive)

Task: Given the compound CCCn1nc(C(=O)N2CCCCC2)c2c1CCC(N1CCC(c3ccncc3)CC1)C2 (centres undefined) , what is its reported growth?
Output: 110% (inactive)

Task: Given the compound "COc1ccc(-c2cc(-c3cccnc3)nc3sc4c(Cl)nnnc4c23)cc1OC" , what is its reported growth?
Output: 102% (inactive)

Task: Given the compound "CCN(c1cc(-c2ccc(CN3CCC(/C=C/S(=O)(=O)c4ccccc4)CC3)cc2)cc(C(=O)NCc2c(C)cc(C)[nH]c2=O)c1C)C1CCOCC1" , what is its reported growth?
Output: 83.8% (inactive)

Task: Given the compound "C[C@@H]1CC[C@@H]2[C@@H]1[C@H](OC(=O)/C=C/c1ccccc1)[C@]1(c3ccccc3)C[C@@H](NC(=O)CO)[C@@]2(C)O1" , what is its reported growth?
Output: 105% (inactive)

====

- Tested on: MDA-MB-435 melanoma
- method summary: NCI-60 one-dose screen, 48 h (100 = growth as untreated, 0 = no growth, -100 = all killed)
- test settings: 10 µM unless noted
- Experimental: Growth inhibition of the MDA-MB-435 human Melanoma tumor cell line is measured as a screen for anti-cancer activity. Cells are grown in 96 well plates and exposed to the test compound for 48 hours. Compounds are tested at a single concentration, which is 10^-5 M for most compounds. The reported endpoint is percent growth (GI% or GIPRCNT), where numbers from 0 - 100% represent growth inhibition, and numbers from -100% - 0 represent cell death. […]
Compounds without any hit were thinned out: in the full panel of roughly 83,000, 20% have a hit.
Reported growth is given for each of the following compounds.
Lab book: enter the figure in %, no units written.

Task: Given the compound "O=[N+]([O-])c1ccc2[nH]c3nccc(NCc4cccc(Cl)c4)c3c2c1" , what is its reported growth?
Output: 77

More entries:
Task: Given the compound "Nc1nc(Nc2cccnc2)sc1C(=O)c1ccccc1F" , what is its reported growth?
Output: 39.2

Task: Given the compound "Cc1ccc(C(=O)Nc2nc3c(s2)CN(Cc2ccccc2)CC3)cn1" , what is its reported growth?
Output: 7.68

Task: Given the compound CC[C@]12CN3CCc4c([nH]c5ccccc45)[C@@](C(=O)OC)(c4cc5c(cc4OC)N(C)[C@H]4[C@@](O)(C(=O)OC)[C@H](OC(C)=O)[C@]6(CC)C=CCN7CC[C@]54[C@@H]76)CC(C3)[C@H]1O2 (stereo not given in full) , what is its reported growth?
Output: -43.8

Task: Given the compound "CCOC(=O)n1cc(-c2nonc2-c2cn(C)c3ccc(OC)cc23)c2cc(F)ccc21" , what is its reported growth?
Output: 85.7

Task: Given the compound "COc1cc(-c2nc(SCCC(C)C)nc(Nc3ccc(F)cc3)c2C#N)cc(OC)c1OC" , what is its reported growth?
Output: 79.4
